System: HeLa
Assay: Antiproliferative activity against human HeLa cells after 48 hrs by MTT assay relative to control
Assay type: functional, cell-based
pIC50: −log10 of the molar value.
assayMetric: pIC50

Cc1cc2c(c(=O)n1C)C(c1ccc(Cl)c(Cl)c1)C(C#N)=C(N)O2 (stereo not given) : 4.74

(I) COc1cc(C2C(C#N)=C(N)Oc3cc(C)n(C)c(=O)c32)cc(OC)c1OC (stereo not given)
(II) COc1cc(C2C(C#N)=C(N)Oc3cc(C)n(C)c(=O)c32)cc(Br)c1OC(C)=O (stereo not given)
(III) COc1cc(C2C(C#N)=C(N)Oc3cc(C)n(C)c(=O)c32)cc(Br)c1OC (stereo not given)
**Q:** Task field, ranking: reported pIC50, descending order. Give your ranking as a list of the labels in the requested order.
**A:** III, II, I
(III: 6.24, II: 5.46, I: 4.36)

The measurements presented in this section are drawn from ChEMBL document CHEMBL1149527.
